biological target: human PDE2A1 (Homo sapiens (Human)); experiment: IMAP FP PDE selectivity panel, human PDE2A1; format: biochemical; conditions: Human PDE2, Lab A; read-out: Human PDE2 Ki (nM) - Lab A
Sequence (O00408 other isoform, or with tags, fused parts or gaps): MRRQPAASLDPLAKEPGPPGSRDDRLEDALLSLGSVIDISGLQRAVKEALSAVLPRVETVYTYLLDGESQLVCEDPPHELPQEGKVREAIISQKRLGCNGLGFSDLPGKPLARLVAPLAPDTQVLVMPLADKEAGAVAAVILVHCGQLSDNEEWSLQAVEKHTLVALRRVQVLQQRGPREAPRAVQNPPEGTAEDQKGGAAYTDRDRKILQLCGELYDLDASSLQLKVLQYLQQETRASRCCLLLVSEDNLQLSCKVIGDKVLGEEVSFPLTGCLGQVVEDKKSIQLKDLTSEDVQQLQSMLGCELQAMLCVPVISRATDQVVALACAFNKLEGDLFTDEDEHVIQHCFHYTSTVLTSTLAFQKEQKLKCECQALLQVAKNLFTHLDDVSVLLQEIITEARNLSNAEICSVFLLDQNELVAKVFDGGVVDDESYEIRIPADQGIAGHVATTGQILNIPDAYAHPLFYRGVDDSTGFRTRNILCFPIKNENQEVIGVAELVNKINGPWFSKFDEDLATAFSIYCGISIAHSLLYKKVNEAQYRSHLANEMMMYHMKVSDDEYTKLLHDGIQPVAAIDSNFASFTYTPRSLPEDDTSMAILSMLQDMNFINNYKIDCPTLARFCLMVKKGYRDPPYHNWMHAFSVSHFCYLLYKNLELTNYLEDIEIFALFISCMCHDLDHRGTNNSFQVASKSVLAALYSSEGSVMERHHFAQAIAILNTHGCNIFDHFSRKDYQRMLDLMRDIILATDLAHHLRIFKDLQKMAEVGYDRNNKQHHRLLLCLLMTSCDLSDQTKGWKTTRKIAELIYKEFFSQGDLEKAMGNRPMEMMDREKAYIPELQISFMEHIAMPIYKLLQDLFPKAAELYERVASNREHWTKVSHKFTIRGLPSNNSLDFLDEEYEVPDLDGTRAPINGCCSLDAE
property: Ki (nM)

# annotated cases, reported Ki shown
[
  {
    "molecule": "CC(C)(NC(=O)c1cc(=O)[nH]c(C2CC2)n1)c1ccc(SC(F)(F)F)cc1 [Example 222]",
    "property": "Ki",
    "reported": 45
  },
  {
    "molecule": "COCc1nc(C(=O)N[C@H](C)c2ccc(C(F)(F)F)c(F)c2)cc(=O)[nH]1 [Example 125]",
    "property": "Ki",
    "reported": 45
  },
  {
    "molecule": "CC(C)c1ccc([C@@H](C)NC(=O)c2cc(=O)[nH]c(C3CC3)n2)cc1 [Example 298]",
    "property": "Ki",
    "reported": 13
  },
  {
    "molecule": "Cc1nc(C(=O)NC2(c3ccc(OC(F)(F)F)cc3)CCC2)cc(=O)[nH]1 [Example 269]",
    "property": "Ki",
    "reported": 118
  },
  {
    "molecule": "Cc1nc(C(=O)NC(C#N)c2ccc(C(F)(F)F)cc2)cc(=O)[nH]1 (centres unmarked) [Example 33]",
    "property": "Ki",
    "reported": 656
  },
  {
    "molecule": "CSCC(NC(=O)c1cc(=O)[nH]c(C)n1)c1ccc(C(F)(F)F)cc1 (centres unmarked) [Example 131]",
    "property": "Ki",
    "reported": 123
  },
  {
    "molecule": "CC(C)c1nc(C(=O)N[C@H](C)c2ccc(C(F)(F)F)cc2)cc(=O)[nH]1 [Example 137]",
    "property": "Ki",
    "reported": 231
  },
  {
    "molecule": "C[C@@H](NC(=O)c1cc(=O)[nH]c(-c2ccccc2)n1)c1ccc(OC(F)(F)F)cc1F [Example 152]",
    "property": "Ki",
    "reported": 13
  }
]

I = C[C@@H](NC(=O)c1cc(=O)[nH]c(-c2ccccc2)n1)c1ccc(C(F)(F)F)cc1F [Example 150]
II = C[C@@H](NC(=O)c1cc(=O)[nH]c(-c2ncccn2)n1)c1ccc(C(F)(F)F)c(Cl)c1 [Example 110]
III = Cc1nc(C(=O)NC(C)c2ccc3cc[nH]c3c2)cc(=O)[nH]1 (centres unmarked) [Example 303]
IV = O=C(NC1(c2ccc(SC(F)(F)F)cc2)CCC1)c1cc(=O)[nH]c(-c2ccccc2)n1 [Example 171]
Ordering criterion: Ki; begin with the maximum. In your reply, arrange the labels in the requested order. III, IV, I, II
(III: 215 nM, IV: 32 nM, I: 15 nM, II: 7.2 nM)

a = Cc1nc(C(=O)NC2(c3ccc(C(F)(F)F)cc3)CCC2)cc(=O)[nH]1 [Example 2]
b = Cc1nc(C(=O)N[C@@H](c2ccc(OC(F)(F)F)c(F)c2)C2CC2)cc(=O)[nH]1 [Example 40]
Please compare: a and b . Report which one has the smaller Ki value. Which one? Tell me its label. b
(b: 9.3 nM, a: 24 nM)
